assay: UV absorption properties (λmax, molar extinction coefficient ε, efficiency E 1%, 1 cm); assay type: physicochemical; conditions: Table 6B, N-tert-butyl compounds
Measurement Label: λmax (nm)

CC1(C)CCN(C(C)(C)C)C=C1C(=O)c1ccc(Br)cc1 [drawing 94] :: 317
CC1(C)CCN(C(C)(C)C)C=C1C(=O)/C=C/c1ccccc1 [drawing 93] :: 360
CC(C)(C)Oc1ccc(C(=O)C2=CN(C(C)(C)C)CCC2(C)C)cc1 [drawing 96] :: 317
CC1(C)CCN(C(C)(C)C)C=C1C(=O)c1ccc(C(=O)C2=CN(C(C)(C)C)CCC2(C)C)cc1 [drawing 97] :: 317
CC1(C)CCN(C(C)(C)C)C=C1C(=O)c1ccc(C(=O)O)cc1 [drawing 98] :: 317
C=CC(=O)C1=CN(C(C)(C)C)CCC1(C)C [drawing 92] :: 328
CN(C)c1ccc(C(=O)C2=CN(C(C)(C)C)CCC2(C)C)cc1 [drawing 95] :: 333

###

experiment: UV absorption properties (λmax, molar extinction coefficient ε, efficiency E 1%, 1 cm); format: physicochemical
Measurement Label: UV λmax (nm)

CC1(C)CCN(C(C)(C)C)C=C1C(=O)NCCCCCCNC(=O)C1=CN(C(C)(C)C)CCC1(C)C :: 289
CCC(=O)O/C(=C\C1=CC(C)(C)CCN1CC(C)C)CC :: 323
CC(C)(C)Oc1ccc(C(=O)C2=CN(C(C)(C)C)CCC2(C)C)cc1 :: 317
CC1(C)C=CN(c2ccccc2)C=C1 :: 285
C=CCC(=O)C1=CN(CC(C)C)CCC1(C)C :: 310
CC(C)CN1C=C(C(=O)c2ccc(Br)cc2)C(C)(C)CC1 :: 318
C=CC(=O)C1=CN(C(C)(C)C)CCC1(C)C :: 328
Cc1ccc(S(=O)(=O)NC(=O)C2=CN(C(C)(C)C)CCC2(C)C)cc1 :: 304
C=CC(=O)C1=CN(c2ccc(OC)cc2)CCC1(C)C :: 350

###

test: UV absorption properties (λmax, molar extinction coefficient ε, efficiency E 1%, 1 cm); format: physicochemical; settings: Table 7; values in order of the λmax values
Measurement Label: E (1%, 1 cm)

Example entries and their recorded answers appear below.
C=C(C)CC(=O)C1=CN(CC(C)C)CCC1(C)C [drawing 108] :: 574
C=C/C=C/C(=O)C1=CN(CC(C)C)CCC1(C)C [drawing 117] :: 730

(a) CC(C)CN1C=C(C(=O)/C=C/c2ccc(C(F)(F)F)cc2)C(C)(C)CC1 [drawing 113]
(b) C=CCC(=O)C1=CN(CC(C)C)CCC1(C)C [drawing 110]
Which of these two has the smaller recorded E (1%, 1 cm): a or b ? Let me know the label of the one you choose.
a

(a) C=C/C=C/CC(=O)C1=CN(CC(C)C)CCC1(C)C [drawing 109]
(b) COc1ccc(/C=C/C(=O)C2=CN(CC(C)C)CCC2(C)C)cc1 [drawing 114]
Which of these two has the smaller recorded E (1%, 1 cm): a or b ? Let me know the label of the one you choose.
b
(b: 493, a: 1053)

(P) C=C(C)C(=O)C1=CN(CC(C)C)CCC1(C)C [drawing 116]
(Q) CC(C)CN1C=C(C(=O)/C=C/c2ccccc2)C(C)(C)CC1 [drawing 111]
Which of these two has the smaller recorded E (1%, 1 cm): P or Q ? Let me know the label of the one you choose.
Q
(Q: 533, P: 806)
